- Measurement Notes: Acute inhalation toxicity in dogs
- Format: in vivo
- Test Settings: dog, in vivo, inhaled; preclinical toxicology studies; not achieved at this dose; read-out: maximum tolerated dose
- Description: Other findings were minor in nature and detailed in the reports that follow. Therefore, nebulization of an aqueous solution was determined to be feasible but not practical due to the inability to achieve a sufficient safety factor to support clinical trials.
Quantity: MTD

// MTD lookup, compound = CC12CCC3C(CC=C4CC(OS(=O)(=O)[O-])CCC43C)C1CCC2=O.[Na+] (stereo not shown) [DHEA-S, Dehydroepiandrosterone sulfate] , result: > 2 mg/kg/day

* * *

- Measurement Notes: Serum and BAL DHEA and DHEA-S levels (Example 26)
- Type: in vivo, rabbits
- Test Settings: rabbit, serum, inhaled, 10 mg/day; twenty-four hours after the last of seven daily treatments; prior 4.7
Quantity: concentration at 24 h after the last dose (ng/mL)
Numeric answer only, unit ng/mL assumed.

response.value for CC12CCC3C(CC=C4CC(OS(=O)(=O)[O-])CCC43C)C1CCC2=O.[Na+] (stereo not shown) [DHEA-S, Dehydroepiandrosterone sulfate] (field: concentration at 24 h after the last dose) = 49
